Tested on: Pythium ultimum
Assay: In vitro fungicidal evaluation, PYTHUL; note: ranges in brackets are in %
Type: cell-based
Conditions: 25 ppm; 3-7 days at 21° C.
metric name: Growth inhibition rating, PYTHUL

Past entries and their recorded results:
[
  {
    "molecule": "CC(C)(C)C(CCc1ccc(Cl)cc1)(Cn1cncn1)OB(c1ccc(F)cc1)c1ccc(F)cc1 (stereo not drawn)",
    "metric name": "Growth inhibition rating, PYTHUL",
    "value reported": "9 (100)"
  },
  {
    "molecule": "Fc1ccc(B(OC(Cn2ccnc2)c2ccc(Cl)cc2Cl)c2ccc(F)cc2)cc1 (stereo not drawn)",
    "metric name": "Growth inhibition rating, PYTHUL",
    "value reported": "5 (60-89)"
  }
]

### Prompt Request the reported Growth inhibition rating, PYTHUL associated with Fc1ccc(B(OC(c2ccc(Cl)cc2)(c2cncnc2)c2ccccc2Cl)c2ccc(F)cc2)cc1 (stereo not drawn)
### Response 1 (1-29)

### Prompt Request the reported Growth inhibition rating, PYTHUL associated with Clc1ccc(C(OB(c2ccccc2)c2ccccc2)(c2cncnc2)c2ccccc2Cl)cc1 (stereo not drawn)
### Response 7 (90-99)

### Prompt Request the reported Growth inhibition rating, PYTHUL associated with Clc1ccc(C(Cn2ccnc2)OB(c2ccccc2)c2ccccc2)c(Cl)c1 (stereo not drawn)
### Response 7 (90-99)

### Prompt Request the reported Growth inhibition rating, PYTHUL associated with CC(C)(C)C(CCc1ccc(Cl)cc1)(Cn1cncn1)OB(c1ccccc1)c1ccccc1 (stereo not drawn)
### Response 9 (100)

====

Tested on: Venturia inaequalis
Assay: In vivo fungicidal evaluation, Apple Scab (AS); note: ranges in brackets are in %
Details: 200 ppm foliar spray
Form field: Disease control rating, AS (one value per entry).

### Prompt Lab note: need Disease control rating, AS for Fc1ccc(B(OC(Cn2ccnc2)c2ccc(Cl)cc2Cl)c2ccc(F)cc2)cc1 (stereo not drawn) [Compound 1] on Venturia inaequalis, anyone have it?
### Response 0 (0)

### Prompt Lab note: need Disease control rating, AS for Fc1ccc(B(OC(c2ccc(Cl)cc2)(c2cncnc2)c2ccccc2Cl)c2ccc(F)cc2)cc1 (stereo not drawn) [Compound 5] on Venturia inaequalis, anyone have it?
### Response 7 (90-95)

### Prompt Lab note: need Disease control rating, AS for CC(C)(C)C(CCc1ccc(Cl)cc1)(Cn1cncn1)OB(c1ccccc1)c1ccccc1 (stereo not drawn) [Compound 3] on Venturia inaequalis, anyone have it?
### Response 8 (96-99)

### Prompt Lab note: need Disease control rating, AS for CC(C)(C)C(CCc1ccc(Cl)cc1)(Cn1cncn1)OB(c1ccc(F)cc1)c1ccc(F)cc1 (stereo not drawn) [Compound 4] on Venturia inaequalis, anyone have it?
### Response 7 (90-95)

### Prompt Lab note: need Disease control rating, AS for Clc1ccc(C(OB(c2ccccc2)c2ccccc2)(c2cncnc2)c2ccccc2Cl)cc1 (stereo not drawn) [Compound 2] on Venturia inaequalis, anyone have it?
### Response 9 (100)

### Prompt Lab note: need Disease control rating, AS for Clc1ccc(C(Cn2ccnc2)OB(c2ccccc2)c2ccccc2)c(Cl)c1 (stereo not drawn) [Compound 6] on Venturia inaequalis, anyone have it?
### Response 3 (30-44)

====

Tested on: Cladosporium cucumerinum (fenarimol-resistant and -sensitive strains)
Type: cell-based
Details: EC50 resistant strain / EC50 sensitive strain, 50 to 54 hours
Form field: Resistance Factor, Cladosporium cucumerinum (one value per entry).
Reply with just the number.

[
  {
    "compound": "Clc1ccc(COC(Cn2ccnc2)c2ccc(Cl)cc2Cl)c(Cl)c1 (stereo not drawn) [Miconazole nitrate, reference compound]",
    "value reported": 2.4
  },
  {
    "compound": "Clc1ccc(COC(Cn2ccnc2)c2ccc(Cl)cc2Cl)cc1 (stereo not drawn) [Econazole nitrate, reference compound]",
    "value reported": 2.0
  },
  {
    "compound": "Clc1ccc(C(Cn2ccnc2)OB(c2ccccc2)c2ccccc2)c(Cl)c1 (stereo not drawn)",
    "value reported": 1.1
  },
  {
    "compound": "Fc1ccc(B(OC(Cn2ccnc2)c2ccc(Cl)cc2Cl)c2ccc(F)cc2)cc1 (stereo not drawn)",
    "value reported": 1.5
  },
  {
    "compound": "CC(C)(C)C(CCc1ccc(Cl)cc1)(Cn1cncn1)OB(c1ccccc1)c1ccccc1 (stereo not drawn)",
    "value reported": 1.7
  }
]

### Prompt Lab note: need Resistance Factor, Cladosporium cucumerinum for CC(C)(C)C(CCc1ccc(Cl)cc1)(Cn1cncn1)OB(c1ccc(F)cc1)c1ccc(F)cc1 (stereo not drawn) on Cladosporium cucumerinum (fenarimol-resistant and -sensitive strains), anyone have it?
### Response 1.3

Attribution: patent US5591726A
